FYI, the data here is from patent US20250282785A1.

- TEST SYSTEM: Recombinant Human NF-Kappab-Inducing Kinase (NIK/MAP3K14) (Homo sapiens, UniProt Q99558)
- Sequence (Q99558 whole entry): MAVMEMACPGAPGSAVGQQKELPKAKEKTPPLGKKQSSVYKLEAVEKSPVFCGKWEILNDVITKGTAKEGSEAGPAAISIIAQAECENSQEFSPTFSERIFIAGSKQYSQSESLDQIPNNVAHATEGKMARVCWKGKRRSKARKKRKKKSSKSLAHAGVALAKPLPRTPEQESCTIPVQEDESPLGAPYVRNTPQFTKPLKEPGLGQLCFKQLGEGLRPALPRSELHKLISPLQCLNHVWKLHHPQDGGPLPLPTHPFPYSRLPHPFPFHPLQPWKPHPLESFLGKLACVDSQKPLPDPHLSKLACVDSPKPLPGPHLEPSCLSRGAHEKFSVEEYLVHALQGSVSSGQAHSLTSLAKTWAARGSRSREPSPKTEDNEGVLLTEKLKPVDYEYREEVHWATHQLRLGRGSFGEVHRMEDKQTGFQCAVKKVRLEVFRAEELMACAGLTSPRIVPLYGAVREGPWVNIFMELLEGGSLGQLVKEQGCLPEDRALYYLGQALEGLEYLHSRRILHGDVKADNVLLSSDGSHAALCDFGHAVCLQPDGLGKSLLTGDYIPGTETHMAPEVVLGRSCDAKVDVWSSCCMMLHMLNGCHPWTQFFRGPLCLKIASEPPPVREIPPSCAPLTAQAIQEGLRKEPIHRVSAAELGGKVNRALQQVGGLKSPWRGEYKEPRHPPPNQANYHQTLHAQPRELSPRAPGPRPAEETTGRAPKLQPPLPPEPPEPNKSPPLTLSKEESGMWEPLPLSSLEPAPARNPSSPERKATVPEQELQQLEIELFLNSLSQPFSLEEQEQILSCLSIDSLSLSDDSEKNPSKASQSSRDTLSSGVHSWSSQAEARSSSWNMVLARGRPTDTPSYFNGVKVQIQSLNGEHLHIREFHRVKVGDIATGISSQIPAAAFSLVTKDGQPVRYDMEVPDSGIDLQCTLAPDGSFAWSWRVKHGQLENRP
- MEASUREMENT PROTOCOL: Inhibition of auto-phosphorylation of recombinant human NIK/MAP3K14 (AlphaScreen)
- Type: biochemical
- TEST SETTINGS: NIK/MAP3K14 auto-phosphorylation, 5 microM ATP, 1 nM enzyme, 2 h at 25° C.; average of values; read-out: Assay 1 IC50
pIC50: −log10 of the molar value.
Overview of recorded pIC50 for various molecules

>  <MOLECULE>
CN1CC[C@@](O)(c2cc(-c3cccc(-c4cc5cn[nH]c5c(C(N)=O)n4)c3)no2)C1=O

>  <TEST SYSTEM>
Recombinant Human NF-Kappab-Inducing Kinase (NIK/MAP3K14) (Homo sapiens, UniProt Q99558)

>  <RECORDED RESULT>
> 7.00

$$$$
>  <MOLECULE>
CN1CC[C@@](O)(c2cc(-c3cccc(-c4ncc(Nc5cn[nH]c5)c(C(N)=O)n4)c3)no2)C1=O

>  <TEST SYSTEM>
Recombinant Human NF-Kappab-Inducing Kinase (NIK/MAP3K14) (Homo sapiens, UniProt Q99558)

>  <RECORDED RESULT>
> 7.00

$$$$
>  <MOLECULE>
CN1CC[C@@](O)(c2cc(-c3cccc(-c4cc(C5CC5)c(N)c(C(N)=O)n4)c3F)no2)C1=O

>  <TEST SYSTEM>
Recombinant Human NF-Kappab-Inducing Kinase (NIK/MAP3K14) (Homo sapiens, UniProt Q99558)

>  <RECORDED RESULT>
> 7.00

$$$$
>  <MOLECULE>
CN1CC[C@@](O)(c2cc(C3CCCN(c4ccc5ncnc(N)c5n4)C3)no2)C1=O (mixture of isomers)

>  <TEST SYSTEM>
Recombinant Human NF-Kappab-Inducing Kinase (NIK/MAP3K14) (Homo sapiens, UniProt Q99558)

>  <RECORDED RESULT>
> 7.00

$$$$
>  <MOLECULE>
CN1CC[C@@](O)(c2cc(-c3cccc(-c4cc(-c5ccnn5C5CC5)cc(C(N)=O)n4)c3)no2)C1=O

>  <TEST SYSTEM>
Recombinant Human NF-Kappab-Inducing Kinase (NIK/MAP3K14) (Homo sapiens, UniProt Q99558)

>  <RECORDED RESULT>
> 7.00

$$$$

If you can, please state the reported pIC50 value of Cc1ccc(-c2cc([C@]3(O)CCN(C)C3=O)on2)cc1-c1cccc(C(N)=O)n1 .
< 6.30

Quick one: CN1CC[C@@](O)(c2cc(-c3cccc(-c4nc5c(c(C(N)=O)n4)[C@H]4CC[C@@H](C5)O4)c3)[nH]n2)C1=O
> 7.00

# repeat for Cc1ncc2cc(-c3cccc(-c4cc([C@]5(O)CCN(C)C5=O)on4)c3)ccn12
< 6.30

Now give it for CC(=O)Nc1cc(-c2cccc(-c3cc([C@]4(O)CCN(C)C4=O)on3)c2)ccn1 too.
6.30 to 7.00

Another molecule to check: [2H]c1nc(N)c2nc(-c3cccc(-n4cc([C@@]5(O)CCN(C)C5=O)nn4)c3)ccc2n1
6.30 to 7.00

Follow-up entry: COc1cc2c(cc1-c1cccc(-c3cc([C@]4(O)CCN(C)C4=O)on3)c1)COC2
< 6.30

Can you handle [2H]c1nc(N)c2nc(-c3cccc(-c4cc([C@]5(O)CCN(C)C5=O)no4)c3)ccc2n1 next?
> 7.00

Next record, please: CN1CC[C@@](O)(c2cc(-c3cccc(-c4cc(N[C@H]5CCOC5)cc(C(N)=O)n4)c3)no2)C1=O
< 6.30

Request: CN1CC[C@@](O)(c2cc(-c3cccc(-c4sc(Br)nc4C(N)=O)c3)no2)C1=O (single isomer, unassigned)
< 6.30

Now the same for CN1CC[C@@](O)(c2cc(-c3cccc(-c4nc(C(N)=O)c(C(F)F)s4)c3)no2)C1=O
> 7.00
